Test system: RAW 264.7 cells
Test: Quantitative cell-permeability of FITC-labeled aMTD- or rPeptide-fused CRA recombinant proteins (flow cytometry)
Format: cell-based
Conditions: cell-permeability of aMTD-fused CRA recombinant protein relative to reference CPP (C: MTD85)
# key: entry, value: Relative Ratio (Fold) C
Number first, unit second.

Worked cases, answers included:
843 (AVLVLVAPAAAP; Amino acid Sequence of aMTD843) [compound 843]    8.9 Fold
323 (IVAVALPVALAP; Amino acid Sequence of aMTD323) [compound 323]    6.4 Fold
901 (ALVAVLPAVAVP; Amino acid Sequence of aMTD901) [compound 901]    2.6 Fold

Please examine the following record next.
The value of Relative Ratio (Fold) C measured for the substance 261 (LVLVPLLAAAAP; Amino acid Sequence of aMTD261) [compound 261] turned out to be 6.2 Fold

* * *

# key: entry, value: Relative Ratio (Fold) B
Test system: RAW 264.7 cells
Assay: Quantitative cell-permeability of FITC-labeled aMTD- or rPeptide-fused CRA recombinant proteins (flow cytometry)
Assay type: cell-based
Conditions: cell-permeability of aMTD-fused CRA recombinant protein relative to reference CPP (B: MTM12)
State just the number; it will be interpreted in Fold.

2 (AAAVPLLAVVVP; Amino acid Sequence of aMTD2) [compound 2]    27.2

The value of Relative Ratio (Fold) B measured for the substance 899 (AVVIALPAVVAP; Amino acid Sequence of aMTD899) [compound 899] turned out to be 109.9

The value of Relative Ratio (Fold) B measured for the substance 875 (AIAIVVPAVAVP; Amino acid Sequence of aMTD875) [compound 875] turned out to be 9.2

The value of Relative Ratio (Fold) B measured for the substance 562 (ALIAAIVPALVP; Amino acid Sequence of aMTD562) [compound 562] turned out to be 21.8

The value of Relative Ratio (Fold) B measured for the substance 1 (AAALAPVVLALP; Amino acid Sequence of aMTD1) [compound 1] turned out to be 11.8

The value of Relative Ratio (Fold) B measured for the substance 21 (AVALLPALLAVP; Amino acid Sequence of aMTD21) [compound 21] turned out to be 12.6

The value of Relative Ratio (Fold) B measured for the substance 849 (AVILLAPLIAAP; Amino acid Sequence of aMTD849) [compound 849] turned out to be 4.8

* * *

Test system: RAW 264.7 cells
Experiment: Quantitative cell-permeability of FITC-labeled aMTD- or rPeptide-fused CRA recombinant proteins (flow cytometry)
Assay type: cell-based
Details: cell-permeability of aMTD-fused CRA recombinant protein relative to reference CPP (C: MTD85)
Excerpt: The aMTDs and rPeptides were fluorescently labeled and compared based on the critical factors for cell-permeability by using flow cytometry and confocal laser scanning microscopy (FIGS. 5 to 8). The cellular uptake of the peptide-fused non-functional cargo recombinant proteins could quantitatively be evaluated in flow cytometry, while confocal laser scanning microscopy allows intracellular uptake to be assessed visually. […]
value.kind: Relative Ratio (Fold) C
State just the number; it will be interpreted in Fold.

I looked up 867 (ALLVVIAPLAAP; Amino acid Sequence of aMTD867) [compound 867] and its Relative Ratio (Fold) C for RAW 264.7 cells was 4.4

I looked up 847 (LVAIVVLPAVAP; Amino acid Sequence of aMTD847) [compound 847] and its Relative Ratio (Fold) C for RAW 264.7 cells was 16.9

I looked up 805 (LVLIAAAPIALP; Amino acid Sequence of aMTD805) [compound 805] and its Relative Ratio (Fold) C for RAW 264.7 cells was 7.6

I looked up 763 (VAVLIAVPALAP; Amino acid Sequence of aMTD763) [compound 763] and its Relative Ratio (Fold) C for RAW 264.7 cells was 4.2
